// provenance: ChEMBL document CHEMBL1777715

# experimental-protocol: Solubility of the compound
# Type: physicochemical
value-kind: solubility

| smiles-input | result-value |
| --- | --- |
| Cc1cc(C(F)(F)F)cc(NC(=O)NS(=O)(=O)c2cc(C)c(CCO)s2)n1 | > 570 µg/mL |
| COCCc1sc(S(=O)(=O)NC(=O)Nc2cc(C(F)(F)F)cc(C)n2)cc1C | > 490 µg/mL |

As a next step, examine the molecule that follows.
Give solubility for CC(=O)OCCc1sc(S(=O)(=O)NC(=O)Nc2cc(C(F)(F)F)cc(C)n2)cc1C > 620 µg/mL

====

# Test system: Hepatocyte
# experimental-protocol: Reduction of glucose production in mouse hepatocytes after 6 hrs by glucose oxidase assay
# Type: functional, cell-based
value-kind: EC50 (µM)
The reply should be a number in µM, with the unit left off.

Before answering, review these 3 worked examples.
| smiles-input | result-value |
| --- | --- |
| COCCc1sc(S(=O)(=O)NC(=O)Nc2cc(C(F)(F)F)cc(N)n2)cc1C | 8 |
| COCCc1sc(S(=O)(=O)NC(=O)Nc2cc(C(F)(F)F)c(F)c(N)n2)cc1C | 8.9 |
| Cc1cccc(S(=O)(=O)NC(=O)Nc2cc(Br)cc3[nH]ncc23)c1 | 13 |

As a next step, examine the compound that follows.
Write EC50 of CNC(=O)Nc1cc(OC)cc(NC(=O)NS(=O)(=O)c2cc(C)c(CCOC)s2)n1 ; system used: Hepatocyte 12
